MIC H. flu values for the compounds below.
test system: H. influenzae; assay: Broth microdilution MIC testing; assay type: cell-based, Haemophilus influenzae; details: H. influenzae

Smiles record	Result
O=c1[nH]c(-c2ccccn2)nc2c1CN(Cc1cc(F)cc(F)c1)CC2	8 µg/mL
CC(C)(C)Oc1ccc(CN2CCc3nc(-c4ccccn4)[nH]c(=O)c3C2)cc1	4 µg/mL
COc1cc(CN2CCc3nc(-c4ccccn4)[nH]c(=O)c3C2)ccc1OCC(N)=O	> 128 µg/mL
O=c1[nH]c(-c2ccccn2)nc2c1CN(Cc1cccc(O)c1O)CC2	> 128 µg/mL
O=C(COc1ccc(CN2CCc3nc(-c4ccccn4)[nH]c(=O)c3C2)cc1)N1CCCC1	> 128 µg/mL

Can you look up MIC H. flu on H. influenzae for `O=c1[nH]c(-c2ccccn2)nc2c1CN(Cc1c(F)cccc1F)CC2` ?
8 µg/mL

# get_value(readout= MIC H. flu, system= H. influenzae) for `COc1ccc(CN2CCc3nc(-c4ccccn4)[nH]c(=O)c3C2)c(OC)c1O`
> 128 µg/mL

What value of MIC H. flu on H. influenzae does `C=CCOc1ccccc1CN1CCc2nc(-c3ccccn3)[nH]c(=O)c2C1` have?
8 µg/mL
